Molecular target: Oxysterols receptor LXR-alpha (Homo sapiens)
Sequence (Q13133 whole entry): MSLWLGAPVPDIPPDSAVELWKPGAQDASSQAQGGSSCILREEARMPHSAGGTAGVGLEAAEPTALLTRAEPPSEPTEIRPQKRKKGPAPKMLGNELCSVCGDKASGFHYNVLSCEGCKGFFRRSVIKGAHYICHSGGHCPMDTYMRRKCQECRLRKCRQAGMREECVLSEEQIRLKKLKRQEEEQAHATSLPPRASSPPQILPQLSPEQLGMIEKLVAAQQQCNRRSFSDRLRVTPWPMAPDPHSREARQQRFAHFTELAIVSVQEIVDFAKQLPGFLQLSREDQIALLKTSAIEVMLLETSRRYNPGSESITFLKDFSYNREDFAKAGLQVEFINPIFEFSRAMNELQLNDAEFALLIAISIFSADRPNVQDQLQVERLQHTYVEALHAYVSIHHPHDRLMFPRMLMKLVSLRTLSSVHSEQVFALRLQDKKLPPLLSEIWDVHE
Outcome measure: IC50 (nM)
Give the value in nM but do not write nM after it.

# IC50 (compound: CCCNC(=O)c1cccc(Oc2cccc(-c3c(C)cnc4c(Cl)cccc34)c2)c1 ) is 280

---

Test system: J774
Assay: Induction of ABCA1 mRNA expression in mouse J774 cells relative to T0901317
Assay type: functional
Outcome measure: Efficacy (%)
Give the value in % but do not write % after it.

Look over these answered cases.
INSERT INTO assay_data (smi, outcome_measure, units_label, measured_value) VALUES
  ('Cc1cnc2c(Cl)cccc2c1-c1cccc(Oc2cccc(C(=O)N3CCOCC3)c2)c1', 'Efficacy', '%', 102),
  ('O=C(c1cccc(Oc2cccc(-c3c(Cc4ccccc4)cnc4c(C(F)(F)F)cccc34)c2)c1)N1CCOCC1', 'Efficacy', '%', 96);

# Efficacy (compound: CCCNC(=O)c1cccc(Oc2cccc(-c3c(Cc4ccccc4)cnc4c(C(F)(F)F)cccc34)c2)c1 ) is 155

# Efficacy (compound: CCCNC(=O)c1cccc(Oc2cccc(-c3c(C)cnc4c(Cl)cccc34)c2)c1 ) is 281

---

Recorded measurements of pIC50, one per entry
Protein target, amino acids: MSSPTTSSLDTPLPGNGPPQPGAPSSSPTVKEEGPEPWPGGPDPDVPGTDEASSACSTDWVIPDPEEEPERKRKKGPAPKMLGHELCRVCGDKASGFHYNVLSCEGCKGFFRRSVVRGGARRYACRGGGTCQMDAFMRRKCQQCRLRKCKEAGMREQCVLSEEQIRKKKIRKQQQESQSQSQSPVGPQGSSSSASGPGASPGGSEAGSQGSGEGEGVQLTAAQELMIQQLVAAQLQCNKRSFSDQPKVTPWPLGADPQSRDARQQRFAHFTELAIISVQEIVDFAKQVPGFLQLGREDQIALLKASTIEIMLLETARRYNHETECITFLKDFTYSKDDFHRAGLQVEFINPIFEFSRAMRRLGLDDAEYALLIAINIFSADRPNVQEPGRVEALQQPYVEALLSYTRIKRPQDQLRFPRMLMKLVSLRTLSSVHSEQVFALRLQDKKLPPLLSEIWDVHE
Friendly reminder that pIC50 comes from taking -log10 of the concentration in mol/L.

INSERT INTO measurements (smi, measured_value) VALUES
  ('O=C(c1cccc(Oc2cccc(-c3c(Cc4ccccc4)cnc4c(C(F)(F)F)cccc34)c2)c1)N1CCOCC1', 8.72);

# evaluate next
# pIC50 (compound: CCCNC(=O)c1cccc(Oc2cccc(-c3c(C)cnc4c(Cl)cccc34)c2)c1 ) is 7.60

Origin of measurements: ChEMBL document CHEMBL1152700
